- Tested on: RSK2(Kin.Dom.1-N-terminal)
- Construct: gene RPS6KA3
- PARTICULARS: concentration: 1 μM, replicates: in singlicate; n = 1
Outcome: label 1 for %Inh of at least 20%; label 0 for anything lower.

Examples from the recorded data:
COMPOUND: NCC(NC(=O)c1cc(-c2cn[nH]c2)c(-c2ccnc3[nH]ccc23)s1)c1ccccc1.O=C(O)C(F)(F)F.O=C(O)C(F)(F)F (stereo not shown)
TARGET_OF_ASSAY: RSK2(Kin.Dom.1-N-terminal)
CLASS_LABEL: label 1
--
COMPOUND: CN1c2ccc(NCc3ccc(F)cc3)cc2-c2c(cnn2C)S1(=O)=O
TARGET_OF_ASSAY: RSK2(Kin.Dom.1-N-terminal)
CLASS_LABEL: label 1
--
COMPOUND: CC(C)(C)n1cnc2c(N)ncnc21
TARGET_OF_ASSAY: RSK2(Kin.Dom.1-N-terminal)
CLASS_LABEL: label 0
--
COMPOUND: Cc1nnc(-c2ccc3occ(-c4ccc(C(C)O)cc4)c3c2)o1 (stereo not shown)
TARGET_OF_ASSAY: RSK2(Kin.Dom.1-N-terminal)
CLASS_LABEL: label 0
--
COMPOUND: CC(=O)Nc1ccc(COc2ccc(Nc3ccnc4cc(-c5ccccn5)ccc34)cc2)cc1.Cl
TARGET_OF_ASSAY: RSK2(Kin.Dom.1-N-terminal);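 further: KINOMEscan kinase panel screen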
CLASS_LABEL: label 0

Form field: %Inh at least 20%? Entry: COc1cc2ncn(-c3cc(OCc4sccc4Cl)c(C(N)=O)s3)c2cc1OC
label 1

Form field: %Inh at least 20%? Entry: O=c1cc(N2CCOCC2)nc2n(Cc3cccc(F)c3)ccn12
label 0

Form field: %Inh at least 20%? Entry: COCCNC(=O)c1ccc(-c2cc(C(=O)NC3CC3)cc(F)c2C)cc1
label 1

Form field: %Inh at least 20%? Entry: Nc1nc(-c2ccc3c(N)n[nH]c3c2)cc(N2CCCC2)n1
label 0

Form field: %Inh at least 20%? Entry: Cc1ccc(NC(=O)c2ccnc(N3CCN(C)CC3)c2)cc1-c1ccc(C(=O)NCC2CC2)cc1
label 0
